- tested-target: LRRK2 G2019S (Homo sapiens (Human), UniProt Q5S007, G2019S)
- Sequence (Q5S007 whole entry G2019S): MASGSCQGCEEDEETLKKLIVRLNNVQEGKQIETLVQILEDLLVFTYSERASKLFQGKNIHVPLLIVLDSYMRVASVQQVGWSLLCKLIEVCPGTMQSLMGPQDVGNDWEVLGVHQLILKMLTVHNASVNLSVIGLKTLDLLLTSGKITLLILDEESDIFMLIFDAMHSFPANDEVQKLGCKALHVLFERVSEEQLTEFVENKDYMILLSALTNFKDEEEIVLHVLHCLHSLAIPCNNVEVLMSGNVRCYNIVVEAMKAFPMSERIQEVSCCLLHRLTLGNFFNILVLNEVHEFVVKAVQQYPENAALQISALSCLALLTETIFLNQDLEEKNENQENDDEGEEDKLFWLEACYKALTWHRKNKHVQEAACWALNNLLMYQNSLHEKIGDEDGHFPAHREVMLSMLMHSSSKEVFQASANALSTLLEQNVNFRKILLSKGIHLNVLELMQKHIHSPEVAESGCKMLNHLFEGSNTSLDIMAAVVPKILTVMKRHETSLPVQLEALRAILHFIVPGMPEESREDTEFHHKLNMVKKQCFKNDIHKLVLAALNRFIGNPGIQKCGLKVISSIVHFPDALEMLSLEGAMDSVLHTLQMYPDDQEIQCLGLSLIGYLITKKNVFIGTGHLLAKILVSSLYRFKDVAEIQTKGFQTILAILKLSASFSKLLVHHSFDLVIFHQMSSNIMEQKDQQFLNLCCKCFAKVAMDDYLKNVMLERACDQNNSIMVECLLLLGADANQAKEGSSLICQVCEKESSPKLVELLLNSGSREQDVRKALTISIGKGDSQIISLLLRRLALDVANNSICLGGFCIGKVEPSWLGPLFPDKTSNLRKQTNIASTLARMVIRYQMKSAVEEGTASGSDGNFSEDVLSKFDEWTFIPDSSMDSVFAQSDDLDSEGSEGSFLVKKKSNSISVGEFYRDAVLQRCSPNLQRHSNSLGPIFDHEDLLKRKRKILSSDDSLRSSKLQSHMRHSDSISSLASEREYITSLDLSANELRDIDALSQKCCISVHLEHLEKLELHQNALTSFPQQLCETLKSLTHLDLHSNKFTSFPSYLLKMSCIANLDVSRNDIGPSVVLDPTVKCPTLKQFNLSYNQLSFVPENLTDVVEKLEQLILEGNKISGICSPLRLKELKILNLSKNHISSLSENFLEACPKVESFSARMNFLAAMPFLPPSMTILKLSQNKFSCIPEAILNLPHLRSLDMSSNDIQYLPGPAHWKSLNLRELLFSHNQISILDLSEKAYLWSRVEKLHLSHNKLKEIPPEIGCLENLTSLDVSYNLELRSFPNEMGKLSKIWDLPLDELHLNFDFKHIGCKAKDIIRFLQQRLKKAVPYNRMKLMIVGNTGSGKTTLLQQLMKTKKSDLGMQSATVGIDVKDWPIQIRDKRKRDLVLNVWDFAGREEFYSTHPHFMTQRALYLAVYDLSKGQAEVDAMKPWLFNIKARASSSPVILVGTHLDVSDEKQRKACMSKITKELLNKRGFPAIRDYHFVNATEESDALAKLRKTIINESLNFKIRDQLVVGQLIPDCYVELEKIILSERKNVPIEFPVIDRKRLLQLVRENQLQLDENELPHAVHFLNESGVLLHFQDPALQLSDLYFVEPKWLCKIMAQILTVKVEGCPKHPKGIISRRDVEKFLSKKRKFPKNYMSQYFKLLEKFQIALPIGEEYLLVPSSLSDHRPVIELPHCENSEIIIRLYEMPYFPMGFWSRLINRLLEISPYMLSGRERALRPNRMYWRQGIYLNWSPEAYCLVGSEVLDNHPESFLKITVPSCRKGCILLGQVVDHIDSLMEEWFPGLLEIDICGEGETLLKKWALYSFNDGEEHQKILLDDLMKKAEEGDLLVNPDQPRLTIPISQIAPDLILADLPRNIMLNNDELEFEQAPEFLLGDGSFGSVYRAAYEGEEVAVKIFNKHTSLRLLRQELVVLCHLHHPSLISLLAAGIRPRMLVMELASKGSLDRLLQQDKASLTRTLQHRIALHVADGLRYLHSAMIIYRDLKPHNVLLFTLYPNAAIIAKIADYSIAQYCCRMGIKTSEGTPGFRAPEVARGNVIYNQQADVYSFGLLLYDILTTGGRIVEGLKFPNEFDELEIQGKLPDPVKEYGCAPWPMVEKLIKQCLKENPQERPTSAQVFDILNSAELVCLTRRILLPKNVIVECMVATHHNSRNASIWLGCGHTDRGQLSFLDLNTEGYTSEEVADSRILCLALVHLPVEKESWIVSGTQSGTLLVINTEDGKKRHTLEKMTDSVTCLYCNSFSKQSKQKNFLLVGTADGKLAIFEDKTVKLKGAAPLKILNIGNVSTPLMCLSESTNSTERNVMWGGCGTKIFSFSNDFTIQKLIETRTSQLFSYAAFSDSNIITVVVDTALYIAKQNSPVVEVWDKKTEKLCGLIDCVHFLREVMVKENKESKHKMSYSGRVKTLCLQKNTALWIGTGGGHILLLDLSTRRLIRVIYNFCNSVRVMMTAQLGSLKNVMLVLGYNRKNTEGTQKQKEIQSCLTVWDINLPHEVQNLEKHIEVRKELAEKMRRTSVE
- assay-method-text: LRRK2 G2019S Kinase Assay (Adapta)
- condition-notes: 100 μM ATP, LRRKtide substrate; read-out: LRRK2_G2019S IC50
Listing of entries alongside the reported IC50.
measured-endpoint: IC50

molecular_string=COc1ccncc1-c1ccc2nc(NC(=O)[C@@H]3C[C@@H]3F)cn2c1 recorded_value="0.01 to 0.1 µM"
molecular_string=Cc1ccc(N)cc1-c1ccc2nc(NC(=O)[C@@H]3C[C@@H]3F)cn2c1 recorded_value="0.01 to 0.1 µM"
molecular_string=Cc1c(F)cccc1-c1ccc2nc(NC(=O)C3CC(F)(F)C3)cn2c1 recorded_value="0.101 to 1 µM"
molecular_string=Cc1c(F)cccc1-c1ccc2nc(NC(=O)[C@@H]3C[C@@H]3F)c(F)n2c1 recorded_value="0.101 to 1 µM"

* * *

Listing of entries alongside the reported IC50.
- tested-target: c-Abl (His-tagged recombinant human ABL1) (Homo sapiens (Human))
- Sequence (P00519 whole entry): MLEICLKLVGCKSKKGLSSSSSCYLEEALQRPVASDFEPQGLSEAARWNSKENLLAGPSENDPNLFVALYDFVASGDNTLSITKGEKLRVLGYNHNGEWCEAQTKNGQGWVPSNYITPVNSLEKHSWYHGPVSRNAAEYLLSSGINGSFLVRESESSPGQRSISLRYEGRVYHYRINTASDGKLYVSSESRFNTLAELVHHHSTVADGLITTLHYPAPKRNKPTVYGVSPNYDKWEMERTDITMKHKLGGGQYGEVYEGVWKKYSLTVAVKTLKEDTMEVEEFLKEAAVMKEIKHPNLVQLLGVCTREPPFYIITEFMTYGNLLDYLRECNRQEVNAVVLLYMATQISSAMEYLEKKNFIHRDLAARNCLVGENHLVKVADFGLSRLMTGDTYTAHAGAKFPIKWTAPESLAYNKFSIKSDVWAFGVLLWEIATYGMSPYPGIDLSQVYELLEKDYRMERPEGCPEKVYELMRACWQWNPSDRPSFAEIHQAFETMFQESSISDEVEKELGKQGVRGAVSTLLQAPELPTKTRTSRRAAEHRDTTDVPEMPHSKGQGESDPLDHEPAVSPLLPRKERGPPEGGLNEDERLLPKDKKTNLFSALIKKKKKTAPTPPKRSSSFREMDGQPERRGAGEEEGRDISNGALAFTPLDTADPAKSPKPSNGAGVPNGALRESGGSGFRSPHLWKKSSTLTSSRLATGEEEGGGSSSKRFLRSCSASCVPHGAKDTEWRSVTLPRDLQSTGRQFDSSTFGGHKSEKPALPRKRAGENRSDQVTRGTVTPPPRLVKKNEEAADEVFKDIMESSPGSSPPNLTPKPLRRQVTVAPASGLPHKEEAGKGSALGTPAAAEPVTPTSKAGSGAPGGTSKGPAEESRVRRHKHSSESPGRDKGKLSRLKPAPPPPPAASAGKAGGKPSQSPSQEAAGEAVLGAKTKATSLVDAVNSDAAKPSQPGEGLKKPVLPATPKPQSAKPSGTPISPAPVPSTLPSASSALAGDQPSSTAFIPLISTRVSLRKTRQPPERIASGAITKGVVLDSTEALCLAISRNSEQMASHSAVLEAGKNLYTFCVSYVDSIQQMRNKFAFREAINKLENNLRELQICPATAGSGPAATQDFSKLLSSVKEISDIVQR
- assay-method-text: c-abl Kinase Assay (ADP-Glo)
- condition-notes: ATP (25 μM), Abltide substrate
- Experimental: ADP-Glo assay kit was purchased from Promega. […] c-Abl kinase activity was measured by Promega's ADP-Glo™ Assay. […] Luminescence was detected after 30-min room temperature incubation with the Molecular device I3X plate reader. The IC50 values were calculated from a series of percent inhibition values determined at a range of inhibitor concentration using software routines as implemented in the GraphPad Prism 7 software and Sigma Plot 13.0.
measured-endpoint: IC50

compound=Cc1c(-c2ccc3nc(NC(=O)[C@@H]4C[C@@H]4F)cn3c2)ccc(F)c1F tested_target="c-Abl (His-tagged recombinant human ABL1) (Homo sapiens (Human))" measured_endpoint=IC50 recorded_value="< 10 nM"
compound=Cc1c(F)cccc1-c1ccc2nc(NC(=O)C3CC(F)(F)C3)cn2c1 tested_target="c-Abl (His-tagged recombinant human ABL1) (Homo sapiens (Human))" measured_endpoint=IC50 recorded_value="10 to 100 nM"
compound=Cc1cc2nc[nH]c2cc1-c1ccc2nc(NC(=O)[C@@H]3C[C@@H]3F)cn2c1 tested_target="c-Abl (His-tagged recombinant human ABL1) (Homo sapiens (Human))" measured_endpoint=IC50 recorded_value="< 10 nM"
compound=CCc1c(F)cccc1-c1ccc2nc(NC(=O)[C@@H]3C[C@@H]3F)cn2c1 tested_target="c-Abl (His-tagged recombinant human ABL1) (Homo sapiens (Human))" measured_endpoint=IC50 recorded_value="< 10 nM"
compound=O=C(Nc1cn2cc(-c3cnc4[nH]ccc4c3)ccc2n1)[C@@H]1C[C@@H]1F tested_target="c-Abl (His-tagged recombinant human ABL1) (Homo sapiens (Human))" measured_endpoint=IC50 recorded_value="< 10 nM"
compound=Cc1cc(Cl)ccc1-c1ccc2nc(NC(=O)[C@@H]3C[C@@H]3F)cn2c1 tested_target="c-Abl (His-tagged recombinant human ABL1) (Homo sapiens (Human))" measured_endpoint=IC50 recorded_value="< 10 nM"
compound=Cc1ccncc1-c1ccc2nc(NC(=O)[C@@H]3C[C@@H]3F)c(C)n2c1 tested_target="c-Abl (His-tagged recombinant human ABL1) (Homo sapiens (Human))" measured_endpoint=IC50 recorded_value="101 to 1000 nM"
compound=COC(=O)c1ccc(C)c(-c2ccc3nc(NC(=O)[C@@H]4C[C@@H]4F)cn3c2)c1 tested_target="c-Abl (His-tagged recombinant human ABL1) (Homo sapiens (Human))" measured_endpoint=IC50 recorded_value="< 10 nM"
compound=Cc1ccncc1-c1ccc2nc(NC(=O)[C@@H]3C[C@@H]3F)cn2c1 tested_target="c-Abl (His-tagged recombinant human ABL1) (Homo sapiens (Human))" measured_endpoint=IC50 recorded_value="10 to 100 nM"
compound=Cc1ccc(-c2cc[nH]n2)cc1-c1ccc2nc(NC(=O)[C@@H]3C[C@@H]3F)cn2c1 tested_target="c-Abl (His-tagged recombinant human ABL1) (Homo sapiens (Human))" measured_endpoint=IC50 recorded_value="< 10 nM"
compound=Cc1cc2cc[nH]c2cc1-c1ccc2nc(NC(=O)[C@@H]3C[C@@H]3F)cn2c1 tested_target="c-Abl (His-tagged recombinant human ABL1) (Homo sapiens (Human))" measured_endpoint=IC50 recorded_value="< 10 nM"
compound=Cc1ccc2c(c1-c1ccc3nc(NC(=O)[C@@H]4C[C@@H]4F)cn3c1)CC(=O)N2 tested_target="c-Abl (His-tagged recombinant human ABL1) (Homo sapiens (Human))" measured_endpoint=IC50 recorded_value="< 10 nM"
compound=O=C(Nc1cn2cc(-c3cccc(F)c3F)ccc2n1)[C@@H]1C[C@@H]1F tested_target="c-Abl (His-tagged recombinant human ABL1) (Homo sapiens (Human))" measured_endpoint=IC50 recorded_value="< 10 nM"
compound=Cc1ccc(N)cc1-c1ccc2nc(NC(=O)[C@@H]3C[C@@H]3F)cn2c1 tested_target="c-Abl (His-tagged recombinant human ABL1) (Homo sapiens (Human))" measured_endpoint=IC50 recorded_value="< 10 nM"
compound="Cc1c(F)cccc1-c1ccc2nc(NC(=O)C3CC(F)C3)cn2c1 (stereo not drawn)" tested_target="c-Abl (His-tagged recombinant human ABL1) (Homo sapiens (Human))" measured_endpoint=IC50 recorded_value="10 to 100 nM"
compound=O=C(Nc1cn2cc(-c3cccc(F)c3-c3ccco3)ccc2n1)[C@@H]1C[C@@H]1F tested_target="c-Abl (His-tagged recombinant human ABL1) (Homo sapiens (Human))" measured_endpoint=IC50 recorded_value="10 to 100 nM"
compound=COCCOCc1c(F)cccc1-c1ccc2nc(NC(=O)[C@@H]3C[C@@H]3F)cn2c1 tested_target="c-Abl (His-tagged recombinant human ABL1) (Homo sapiens (Human))" measured_endpoint=IC50 recorded_value="10 to 100 nM"
compound="Cc1c(F)cccc1-c1ccc2nc(NC(=O)[C@H]3C[C@H]3F)cn2c1 (stereo in doubt)" tested_target="c-Abl (His-tagged recombinant human ABL1) (Homo sapiens (Human))" measured_endpoint=IC50 recorded_value="< 10 nM"
compound=Cc1c(F)cccc1-c1ccc2nc(NC(=O)[C@@H]3C[C@@H]3F)c(F)n2c1 tested_target="c-Abl (His-tagged recombinant human ABL1) (Homo sapiens (Human))" measured_endpoint=IC50 recorded_value="< 10 nM"
compound=COCc1c(F)cccc1-c1ccc2nc(NC(=O)[C@@H]3C[C@@H]3F)cn2c1 tested_target="c-Abl (His-tagged recombinant human ABL1) (Homo sapiens (Human))" measured_endpoint=IC50 recorded_value="< 10 nM"
compound=O=C1Cc2ccc(-c3ccc4nc(NC(=O)[C@@H]5C[C@@H]5F)cn4c3)cc2N1 tested_target="c-Abl (His-tagged recombinant human ABL1) (Homo sapiens (Human))" measured_endpoint=IC50 recorded_value="10 to 100 nM"
compound=Cc1cccc(-c2ccc3nc(NC(=O)[C@@H]4C[C@@H]4F)cn3c2)c1C tested_target="c-Abl (His-tagged recombinant human ABL1) (Homo sapiens (Human))" measured_endpoint=IC50 recorded_value="< 10 nM"
compound=Cc1c(F)cccc1-c1ccc2nc(NC(=O)[C@@H]3C[C@@H]3F)c(Br)n2c1 tested_target="c-Abl (His-tagged recombinant human ABL1) (Homo sapiens (Human))" measured_endpoint=IC50 recorded_value="10 to 100 nM"
compound=Cc1ccncc1-c1ccc2nc(NC(=O)[C@@H]3C[C@@H]3F)c(Cl)n2c1 tested_target="c-Abl (His-tagged recombinant human ABL1) (Homo sapiens (Human))" measured_endpoint=IC50 recorded_value="101 to 1000 nM"
compound=Cc1ccc(C)c(-c2ccc3nc(NC(=O)[C@@H]4C[C@@H]4F)cn3c2)c1 tested_target="c-Abl (His-tagged recombinant human ABL1) (Homo sapiens (Human))" measured_endpoint=IC50 recorded_value="< 10 nM"
compound=Cc1cc2ncoc2cc1-c1ccc2nc(NC(=O)[C@@H]3C[C@@H]3F)cn2c1 tested_target="c-Abl (His-tagged recombinant human ABL1) (Homo sapiens (Human))" measured_endpoint=IC50 recorded_value="< 10 nM"
compound=O=C(Nc1cn2cc(-c3cnc4[nH]ccc4c3Cl)ccc2n1)[C@@H]1C[C@@H]1F tested_target="c-Abl (His-tagged recombinant human ABL1) (Homo sapiens (Human))" measured_endpoint=IC50 recorded_value="< 10 nM"

* * *

Listing of entries alongside the reported IC50.
- tested-target: LRRK2 G2019S (Homo sapiens (Human), UniProt Q5S007, G2019S)
- assay-method-text: LRRK2 G2019S Kinase Assay (Adapta)
- condition-notes: 100 μM ATP, LRRKtide substrate; read-out: LRRK2_G2019S IC50
measured-endpoint: IC50

molecular_string=O=C(Nc1cn2cc(-c3cnccc3C(F)(F)F)ccc2n1)[C@@H]1C[C@@H]1F recorded_value="0.101 to 1 µM"
molecular_string=COC(=O)c1ccc(C)c(-c2ccc3nc(NC(=O)[C@@H]4C[C@@H]4F)cn3c2)c1 recorded_value="> 1 µM"
molecular_string=Nc1ccc(-c2ccc3nc(NC(=O)[C@@H]4C[C@@H]4F)cn3c2)cn1 recorded_value="0.101 to 1 µM"
